Biological target: Galanin receptor type 2 (Rattus norvegicus)
Test: activates the rat galanin receptor 2 (AID 833)
Conditions: cell-based GALR2 agonist screen; at 10 µM; hits give high values
About 80 (0.5%) of roughly 16,000 compounds were called active. For the sample, actives were picked, then their nearest neighbours and some compounds at random.
readoutKind: activation (%)

molecule	observedMeasurement
Cc1nc(-c2ncc(-c3ccccc3)o2)c(C(F)(F)F)o1	-5.66
CCc1ccnc(NS(=O)(=O)c2ccc3c(c2)OCCO3)c1	-1.48
CSc1sc(C(=O)NC2CC2)c(-c2ccc(Cl)cc2)c1C#N	-8.05
C#CC(C)(CC)OCC(O)CS(=O)(=O)O (stereo not given)	-5.43
COC(=O)/C(=C/c1ccccc1)c1ccccc1	-1.48
CN(C)c1cccc2c1c(NC(=O)Nc1ccc(OCc3ccccc3)cc1)nn2C	-3.92
FC(F)(F)c1cccc(NC(=S)NNc2nccc(C(F)(F)F)n2)c1	-8.08
CN(C)/C=C/C(=O)c1cc(C(C)(C)C)cc(C(C)(C)C)c1O	-4.8
N/C(=N\S(=O)(=O)c1ccc(Cl)cc1)N1CCOCC1	-1.28
Cc1cccc(-c2noc(NC(=O)O/N=C/c3ccccc3)n2)c1	-3.45
O=S(=O)(CCSc1ccc(C(F)(F)F)cn1)CCSc1ccc(C(F)(F)F)cn1	-4.73
O=C(NC1Cc2ccccc2C1)c1nnc(-c2ccccc2)o1	-5.35
NNC(=O)CC1C(=O)NCCN1Cc1c(Cl)cccc1Cl (stereo not given)	-5.38
COc1cccc2c1c(NS(=O)(=O)c1cn(C)cn1)nn2C	-5.19
c1ccc2c(c1)NC(C1Nc3ccccc3O1)O2 (stereo not given)	-4.99
Cc1csc(/N=C/N(C)C)c1C#N	-4.03
COc1cc(NC(=O)c2ncc(C(F)(F)F)cc2Cl)c(C(=O)O)cc1OC	-7.07
O=[N+]([O-])c1ccc(-c2nnnn2Cc2c(Cl)cccc2Cl)cc1	-2.65
O=C(N[C@@H](Cc1ccc(O)cc1)C(=O)O)OCc1ccccc1	-5.07
CSc1nsc(SC)c1C(=O)Nc1cc(C(F)(F)F)cc(C(F)(F)F)c1	-4.92
CCOc1ccc(NC(=S)N2CCC(c3ccccc3OC)CC2)cc1	-6.67
CCN=C(NCC)Nc1ccc(Cl)cc1	-7.95
O=C(O)CC1(CC(=O)Nc2ccc(N3CCCCC3)cc2)CCCCC1	-3.41
CC1(C)CC(=O)C=C(N2CCOCC2)C1	-5.82
CC1CC(NC(=O)/C(C#N)=C/c2ccc[nH]2)CC(C)(C)C1 (stereo not given)	-10.3

----------
Parameter: activation. Scope: all listed entries.
Biological target: Galanin receptor type 2 (Rattus norvegicus)
Test: activates the rat galanin receptor 2 (AID 833)
Conditions: cell-based GALR2 agonist screen; at 10 µM; hits give high values
About 80 (0.5%) of roughly 16,000 compounds were called active. This excerpt belongs to a sample that is enriched for actives.
readoutKind: activation (%)

molecule	observedMeasurement
O=S(=O)(Oc1ccc(C2SCCS2)cc1)c1ccc(Br)cc1	-1.98
CCOc1ccc(C(N)=O)c(SCC(=O)O)c1	-10.1
O=C(Nc1ccccc1N1CCOCC1)NC1CCN(C(=O)OCc2ccccc2)CC1	-4.03
N/C(=N\OCc1noc(-c2ccsc2)n1)c1ccc(C(F)(F)F)cc1	-8
CC1=C(C(=O)O)N2C(=O)[C@H](NC(=O)[C@@H](N)c3ccccc3)C2SC1 (stereo partly specified)	22.8
C=C(C)c1cccc(C(C)(C)NC(=O)CC(C)=O)c1	-4.52

----------
Parameter: activation. Scope: all listed entries.
Biological target: Galanin receptor type 2 (Rattus norvegicus) (UniProt O08726)
Sequence (O08726 whole entry, looked up): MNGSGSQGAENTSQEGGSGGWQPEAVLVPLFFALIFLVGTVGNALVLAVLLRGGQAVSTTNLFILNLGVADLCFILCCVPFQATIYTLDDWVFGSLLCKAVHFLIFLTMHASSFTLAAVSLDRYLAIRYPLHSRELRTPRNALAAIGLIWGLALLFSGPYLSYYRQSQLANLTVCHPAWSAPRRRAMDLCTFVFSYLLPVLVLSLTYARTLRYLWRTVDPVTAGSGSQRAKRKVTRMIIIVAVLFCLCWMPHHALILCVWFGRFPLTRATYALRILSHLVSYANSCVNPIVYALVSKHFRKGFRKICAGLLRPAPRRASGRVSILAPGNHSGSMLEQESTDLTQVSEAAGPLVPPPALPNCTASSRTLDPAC
Test: activates the rat galanin receptor 2 (AID 833)
Conditions: cell-based GALR2 agonist screen; at 10 µM; hits give high values
Screen size: about 16,000 compounds; about 80 (0.5%) were called active. This is one part of a sample in which actives are shown more often than they occur.

compound	targetOrTestSystem	activation (%)
Cc1ccc(S(C)(=O)=NC(=O)NS(=O)(=O)Oc2ccc(Cl)cc2Cl)cc1 (stereo unspecified)	Galanin receptor type 2 (Rattus norvegicus) (UniProt O08726)	-1.36
CCOC(=O)/C=C(/Nc1ccccc1SC)c1ccccc1	Galanin receptor type 2 (Rattus norvegicus) (UniProt O08726)	-8.09
CSC(=CC(=O)c1cccs1)SC	Galanin receptor type 2 (Rattus norvegicus) (UniProt O08726)	-10.2
O=C1C2C3C=CC(O3)C2C(=O)N1OCc1ccc(OC(F)(F)F)cc1 (stereo unspecified)	Galanin receptor type 2 (Rattus norvegicus) (UniProt O08726)	-2.8
COc1cc(CCN=Cc2ccccc2O)c([N+](=O)[O-])cc1OC	Galanin receptor type 2 (Rattus norvegicus) (UniProt O08726)	-0.09
N#CC(C#N)=Cc1cccn1-c1ccc(C(F)(F)F)cc1	Galanin receptor type 2 (Rattus norvegicus) (UniProt O08726)	-6.03
O=C(NCCO)NCCSc1ccc(F)cc1	Galanin receptor type 2 (Rattus norvegicus) (UniProt O08726)	-4.7
Cc1cc(Cl)ccc1NC(=S)NNC(=S)Nc1ccc(F)cc1	Galanin receptor type 2 (Rattus norvegicus) (UniProt O08726)	-1.79
O=C(O)Cc1csc(NC(=O)CSc2nnnn2-c2ccc(O)cc2)n1	Galanin receptor type 2 (Rattus norvegicus) (UniProt O08726)	-6.18
Cc1cc(C)nc(N/C=C(\C#N)S(=O)(=O)c2ccc(Cl)cc2)n1	Galanin receptor type 2 (Rattus norvegicus) (UniProt O08726)	-7.71
O=C(Cn1nnc(N2CCOCC2)n1)N/N=C/c1ccc(-c2cccc([N+](=O)[O-])c2)o1	Galanin receptor type 2 (Rattus norvegicus) (UniProt O08726)	-7.32

----------
Target: Galanin receptor type 2 (Rattus norvegicus)
Assay: activates the rat galanin receptor 2 (AID 833)
Settings: cell-based GALR2 agonist screen; at 10 µM; hits give high values
The campaign covered roughly 16,000 compounds. About 80 (0.5%) were called active. The full list was thinned out, with actives kept by preference.

compound	activation / %
Clc1ccc(C=NCc2cccnc2)c(Cl)c1	-5.42
Cc1cc(C)nc(NC(=S)c2ccc(NC(=O)/C=C/C(=O)O)cc2)n1	-5.82
N#Cc1ccc(N2CCN(C(=O)c3ccco3)CC2)cc1	-9.07
CCOC(=O)c1cc(CC)sc1NC(=O)c1cccnc1Oc1ccccc1	-8.18
N#CC(c1cc2ccccc2cn1)c1ccc2c(c1[N+](=O)[O-])C(=O)c1ccccc1C2=O (stereo not given)	-8.33
CCOC(=O)c1c(NS(=O)(=O)c2cccc3nsnc23)sc(C)c1C	-6.04
Cc1onc(C(=O)NN)c1-c1csc(COc2ccccc2)n1	-4.77
CCCN(CCC)S(=O)(=O)c1ccc(C(=O)N2CC3CCC(CC3)C2)cc1	-5.35
CN(C)c1ccc(/C=C(\C#N)S(C)(=O)=O)c(Cl)c1	-4.37
CCOC(=O)C(=CNNc1ccc(C(=O)O)cc1[N+](=O)[O-])C(=O)OCC	-6.55
CO/N=C1\C(=O)N(C)c2ccccc21	-3.65
COC(=O)c1ccc(/C=C2\C(=O)Nc3ccccc32)n1-c1ccc(F)cc1	2.14
COc1cccc(/C=C2\SC(=S)C(N)C2=O)c1OC (stereo not given)	-1.21
CSc1nsc(SC)c1C(=O)NC(=O)NNc1ccc(F)c(Cl)c1	-2.68
N/C(=N\O)c1ccc2nonc2c1	-8.97
COC(=O)c1ccsc1NC(C)=O	-5.28
N#Cc1c(-c2cccs2)cc(-c2cccs2)nc1N	10.7
CN(C)CCC(O)c1ccc2c(c1)OCCCCO2 (stereo not given)	-8.25
NS(=O)(=O)c1cc(Br)ccc1I	-1.14
N#Cc1ccc(-c2csc(COc3ccccc3Cl)n2)cc1	34
O=[N+]([O-])c1ccc(-c2ccc(I)cc2)cc1	-5.42
N/C(=N\OC(=O)c1ccc(Cl)cc1)c1cccc(CS(=O)(=O)c2ccccn2)c1	-8.52
CS(=O)(=O)/N=C(\N)c1ccncc1	-6.47
NNC(=O)c1csc(COc2ccc(C3SCCS3)cc2)n1	-7.31
Cc1ccc(NC(=O)c2ccccc2NC(=O)c2ccccc2)cc1	-2.58

----------
Target: Galanin receptor type 2 (Rattus norvegicus) (UniProt O08726)
Test: activates the rat galanin receptor 2 (AID 833)
Details: cell-based GALR2 agonist screen; at 10 µM; hits give high values
In all, about 16,000 compounds went through this assay and about 80 (0.5%) were called active. This excerpt belongs to a sample that is enriched for actives.
readoutKind: activation (%)

compound	targetOrTestSystem	readoutKind	observedMeasurement
COc1ccc2c(c1)CCCC2=Nc1ccccc1C(F)(F)F	Galanin receptor type 2 (Rattus norvegicus) (UniProt O08726)	activation	-6.48
Cn1cccc1-c1n[nH]c(=S)n1-c1ccc(Cl)cc1Cl	Galanin receptor type 2 (Rattus norvegicus) (UniProt O08726)	activation	-4.04
N#CC1(C#N)C(c2ccc(Cl)c(Cl)c2)C1(C#N)C#N	Galanin receptor type 2 (Rattus norvegicus) (UniProt O08726)	activation	-8.55
O=C(Nc1ccc(C(F)(F)F)cc1)Nc1ccccc1C(=O)O	Galanin receptor type 2 (Rattus norvegicus) (UniProt O08726)	activation	-8.04
c1ccc(CN2CCN(Cn3nnc4ccccc43)CC2)cc1	Galanin receptor type 2 (Rattus norvegicus) (UniProt O08726)	activation	-4.65
CC(=O)/C(=C\N(C)C)c1ncccc1[N+](=O)[O-]	Galanin receptor type 2 (Rattus norvegicus) (UniProt O08726)	activation	-5.71
COC(=O)c1ccc(S(=O)(=O)NNC(=O)c2cn3cc(C(F)(F)F)cc(Cl)c3n2)n1C	Galanin receptor type 2 (Rattus norvegicus) (UniProt O08726)	activation	-7.71
O=C1C=C(SCC(=O)c2ccccc2)SC(c2ccc(Cl)cc2)C1 (stereo unspecified)	Galanin receptor type 2 (Rattus norvegicus) (UniProt O08726)	activation	6.17
CSc1sc(C(=O)Nc2cccc(C(F)(F)F)c2)cc1S(=O)(=O)C(C)C	Galanin receptor type 2 (Rattus norvegicus) (UniProt O08726)	activation	-6.93
CCOC(=O)C(=CNc1ccc2n[nH]nc2c1)C(=O)OCC	Galanin receptor type 2 (Rattus norvegicus) (UniProt O08726)	activation	-1.04
FC(F)(F)c1csc(N/N=C/c2ccccc2Cl)n1	Galanin receptor type 2 (Rattus norvegicus) (UniProt O08726)	activation	-13.1
